system: Pseudomonas aeruginosa ATCC 27853; test: Injectable formulations on mice infected with peritonitis; format: in vivo, ICR mice; details: 1 mg/kg via tail vein, twice a day for 3 days, n = 10
Non-standard residues stand in square brackets, D forms with d. Residues, ends and D or L forms follow the SMILES beside them. dPhe(4-CF3) = N[C@H](Cc1ccc(C(F)(F)F)cc1)C(=O)O; dPhe(3,4-F2) = N[C@H](Cc1ccc(F)c(F)c1)C(=O)O; dPhe(4-Br) = N[C@H](Cc1ccc(Br)cc1)C(=O)O; dPhe(4-Me) = Cc1ccc(C[C@@H](N)C(=O)O)cc1; d2Nal = N[C@H](Cc1ccc2ccccc2c1)C(=O)O; d(hLeu) = CC(C)CC[C@@H](N)C(=O)O
Quick reference: Number of mice that died on each day after infection: day 1 of the listed items.
Reported endpoint: Number of mice that died on each day after infection: day 1

1. CC(=O)N[C@H](CCCNC(=N)N)C(=O)N[C@H](CCCCN)C(=O)N[C@H](CC(C)C)C(=O)N[C@H](CC(C)C)C(=O)N[C@H](Cc1ccc(C)cc1)C(=O)N[C@H](CCCCN)C(=O)N[C@H](CC(C)C)C(=O)N[C@H](CCCCN)C(=O)N[C@H](Cc1ccc(C)cc1)C(=O)N[C@H](CCCCN)C(=O)N[C@H](CCCNC(=N)N)C(N)=O [LV-11] (Ac-[dR][dK][dL][dL][dPhe(4-Me)][dK][dL][dK][dPhe(4-Me)][dK][dR]-NH2)	0 Mouse
2. CC(=O)N[C@H](CCCCN)C(=O)N[C@H](CCCCN)C(=O)N[C@H](CC(C)C)C(=O)N[C@H](CC(C)C)C(=O)N[C@H](Cc1ccc(Br)cc1)C(=O)N[C@H](CCCNC(=N)N)C(=O)N[C@H](CC(C)C)C(=O)N[C@H](CCCCN)C(=O)N[C@H](Cc1ccc(Br)cc1)C(=O)N[C@H](CCCNC(=N)N)C(=O)N[C@H](CCCCN)C(N)=O [LV-10] (Ac-[dK][dK][dL][dL][dPhe(4-Br)][dR][dL][dK][dPhe(4-Br)][dR][dK]-NH2)	0 Mouse
3. CC(=O)N[C@H](CCCNC(=N)N)C(=O)N[C@H](CCCCN)C(=O)N[C@H](CC(C)C)C(=O)N[C@H](CC(C)C)C(=O)N[C@H](Cc1ccc2ccccc2c1)C(=O)N[C@H](CCCNC(=N)N)C(=O)N[C@H](CC(C)C)C(=O)N[C@H](CCCCN)C(=O)N[C@H](Cc1ccc2ccccc2c1)C(=O)N[C@H](CCCNC(=N)N)C(=O)N[C@H](CCCNC(=N)N)C(N)=O [LV-22] (Ac-[dR][dK][dL][dL][d2Nal][dR][dL][dK][d2Nal][dR][dR]-NH2)	1 Mouse
4. CC(=O)N[C@H](CCCNC(=N)N)C(=O)N[C@H](CCCCN)C(=O)N[C@H](CC(C)C)C(=O)N[C@H](CC(C)C)C(=O)N[C@H](Cc1ccc2ccccc2c1)C(=O)N[C@H](CCCCN)C(=O)N[C@H](CC(C)C)C(=O)N[C@H](CCCCN)C(=O)N[C@H](Cc1ccc2ccccc2c1)C(=O)N[C@H](CCCCN)C(=O)N[C@H](CCCNC(=N)N)C(N)=O [LV-18] (Ac-[dR][dK][dL][dL][d2Nal][dK][dL][dK][d2Nal][dK][dR]-NH2)	0 Mouse
5. CC(=O)N[C@H](CCCNC(=N)N)C(=O)N[C@H](CCCCN)C(=O)N[C@H](CC(C)C)C(=O)N[C@H](CC(C)C)C(=O)N[C@H](Cc1ccc(F)c(F)c1)C(=O)N[C@H](CCCCN)C(=O)N[C@H](CC(C)C)C(=O)N[C@H](CCCCN)C(=O)N[C@H](Cc1ccc(F)c(F)c1)C(=O)N[C@H](CCCCN)C(=O)N[C@H](CCCNC(=N)N)C(N)=O [LV-6] (Ac-[dR][dK][dL][dL][dPhe(3,4-F2)][dK][dL][dK][dPhe(3,4-F2)][dK][dR]-NH2)	1 Mouse
6. CC(=O)N[C@H](CCCNC(=N)N)C(=O)N[C@H](CCCCN)C(=O)N[C@H](CCC(C)C)C(=O)N[C@H](CCC(C)C)C(=O)N[C@H](Cc1ccc2ccccc2c1)C(=O)N[C@H](CCCNC(=N)N)C(=O)N[C@H](CCC(C)C)C(=O)N[C@H](CCCCN)C(=O)N[C@H](Cc1ccc2ccccc2c1)C(=O)N[C@H](CCCNC(=N)N)C(=O)N[C@H](CCCCN)C(N)=O [LV-14] (Ac-[dR][dK][d(hLeu)][d(hLeu)][d2Nal][dR][d(hLeu)][dK][d2Nal][dR][dK]-NH2)	1 Mouse
7. CC(=O)N[C@H](CCCNC(=N)N)C(=O)N[C@H](CCCNC(=N)N)C(=O)N[C@H](CC(C)C)C(=O)N[C@H](CC(C)C)C(=O)N[C@H](Cc1ccc2ccccc2c1)C(=O)N[C@H](CCCNC(=N)N)C(=O)N[C@H](CC(C)C)C(=O)N[C@H](CCCCN)C(=O)N[C@H](Cc1ccc2ccccc2c1)C(=O)N[C@H](CCCNC(=N)N)C(=O)N[C@H](CCCCN)C(N)=O [LV-21] (Ac-[dR][dR][dL][dL][d2Nal][dR][dL][dK][d2Nal][dR][dK]-NH2)	2 Mouse
8. CC(=O)N[C@H](CCCNC(=N)N)C(=O)N[C@H](CCCCN)C(=O)N[C@H](CC(C)C)C(=O)N[C@H](CC(C)C)C(=O)N[C@H](Cc1ccc(C(F)(F)F)cc1)C(=O)N[C@H](CCCCN)C(=O)N[C@H](CC(C)C)C(=O)N[C@H](CCCCN)C(=O)N[C@H](Cc1ccc(C(F)(F)F)cc1)C(=O)N[C@H](CCCCN)C(=O)N[C@H](CCCNC(=N)N)C(N)=O [LV-9] (Ac-[dR][dK][dL][dL][dPhe(4-CF3)][dK][dL][dK][dPhe(4-CF3)][dK][dR]-NH2)	1 Mouse
9. CC(=O)N[C@H](CCCCN)C(=O)N[C@H](CCCCN)C(=O)N[C@H](CC(C)C)C(=O)N[C@H](CC(C)C)C(=O)N[C@H](Cc1ccc(F)c(F)c1)C(=O)N[C@H](CCCNC(=N)N)C(=O)N[C@H](CC(C)C)C(=O)N[C@H](CCCCN)C(=O)N[C@H](Cc1ccc(F)c(F)c1)C(=O)N[C@H](CCCNC(=N)N)C(=O)N[C@H](CCCCN)C(N)=O [LV-25] (Ac-[dK][dK][dL][dL][dPhe(3,4-F2)][dR][dL][dK][dPhe(3,4-F2)][dR][dK]-NH2)	0 Mouse

---

Tested on: Candida krusei ATCC 6258
Format: cell-based
Description: According to the Standards of Clinical and Laboratory Standards Institute (CLSI) of the USA for antimicrobial drug susceptibility test operation standards, the micronutrient serial twofold dilution method was used further determine MICs of 30 AMPs (S/N: LV-1 to LV-30) 10 clinically common sensitive strains and 6 fungi in clinical practice. The experiment was repeated 5 times in parallel.
Non-standard residues stand in square brackets, D forms with d. PEG2000 = polyethylene glycol 2000, conjugated to the N-terminus; PEG4000 = polyethylene glycol 4000, conjugated to the C-terminus; PEG200 = polyethylene glycol 200, conjugated to the C-terminus; PEG500 = polyethylene glycol 500, conjugated to the C-terminus; 2Nal = N[C@@H](Cc1ccc2ccccc2c1)C(=O)O; PEG1000 = polyethylene glycol 1000
Quick reference: MIC Candida krusei ATCC 6258 of the listed items.
Reported endpoint: MIC Candida krusei ATCC 6258

1) Ac-RKLLXRLKXRK-PEG4000 [LV-30] (Ac-RKLL[2Nal]RLK[2Nal]RK-PEG4000) [polyethylene glycol 4000 conjugated to C-terminal; X=3-(2-naphthyl)-alanine]	16 µg/mL
2) Ac-RKLLXRLKXRK-PEG1000 [LV-28] (Ac-RKLL[2Nal]RLK[2Nal]RK-PEG1000) [polyethylene glycol 1000 conjugated to C-terminal; X=3-(2-naphthyl)-alanine]	4 µg/mL
3) Ac-RKLLXRLKXRK-PEG500 [LV-27] (Ac-RKLL[2Nal]RLK[2Nal]RK-PEG500) [polyethylene glycol 500 conjugated to C-terminal; X=3-(2-naphthyl)-alanine]	8 µg/mL
4) Ac-RKLLXRLKXRK-PEG200 [LV-26] (Ac-RKLL[2Nal]RLK[2Nal]RK-PEG200) [polyethylene glycol 200 conjugated to C-terminal; X=3-(2-naphthyl)-alanine]	4 µg/mL
5) PEG2000-RKLLXRLKXRK-NH2 [LV-29] (PEG2000-RKLL[2Nal]RLK[2Nal]RK-NH2) [polyethylene glycol 2000 conjugated to N-terminal; X=3-(2-naphthyl)-alanine]	8 µg/mL

---

system: Escherichia coli ATCC 25922; assay: Oral formulations on mice with systemic bacterial infection; type: in vivo, ICR mice; conditions: 1 mg/kg gavage, three times a day for 7 days, n = 10
Non-standard residues stand in square brackets, D forms with d. Residues, ends and D or L forms follow the SMILES beside them. dPhe(3,4-F2) = N[C@H](Cc1ccc(F)c(F)c1)C(=O)O; dPhe(4-Br) = N[C@H](Cc1ccc(Br)cc1)C(=O)O; dPhe(4-Me) = Cc1ccc(C[C@@H](N)C(=O)O)cc1; dPhe(4-F) = N[C@H](Cc1ccc(F)cc1)C(=O)O; d2Nal = N[C@H](Cc1ccc2ccccc2c1)C(=O)O
Reported endpoint: Number of mice that died on each day after infection: day 4 (Mouse)

1) CC(=O)N[C@H](CCCNC(=N)N)C(=O)N[C@H](CCCCN)C(=O)N[C@H](CC(C)C)C(=O)N[C@H](CC(C)C)C(=O)N[C@H](Cc1ccccc1)C(=O)N[C@H](CCCNC(=N)N)C(=O)N[C@H](CC(C)C)C(=O)N[C@H](CCCCN)C(=O)N[C@H](Cc1ccc2ccccc2c1)C(=O)N[C@H](CCCNC(=N)N)C(=O)N[C@H](CCCCN)C(N)=O [LV-3] (Ac-[dR][dK][dL][dL][dF][dR][dL][dK][d2Nal][dR][dK]-NH2)	1
2) CC(=O)N[C@H](CCCCN)C(=O)N[C@H](CCCCN)C(=O)N[C@H](CC(C)C)C(=O)N[C@H](CC(C)C)C(=O)N[C@H](Cc1ccc(Br)cc1)C(=O)N[C@H](CCCNC(=N)N)C(=O)N[C@H](CC(C)C)C(=O)N[C@H](CCCCN)C(=O)N[C@H](Cc1ccc(Br)cc1)C(=O)N[C@H](CCCNC(=N)N)C(=O)N[C@H](CCCCN)C(N)=O [LV-10] (Ac-[dK][dK][dL][dL][dPhe(4-Br)][dR][dL][dK][dPhe(4-Br)][dR][dK]-NH2)	0
3) CC(=O)N[C@H](CCCNC(=N)N)C(=O)N[C@H](CCCCN)C(=O)N[C@H](CC(C)C)C(=O)N[C@H](CC(C)C)C(=O)N[C@H](Cc1ccc(C)cc1)C(=O)N[C@H](CCCCN)C(=O)N[C@H](CC(C)C)C(=O)N[C@H](CCCCN)C(=O)N[C@H](Cc1ccc(C)cc1)C(=O)N[C@H](CCCCN)C(=O)N[C@H](CCCNC(=N)N)C(N)=O [LV-11] (Ac-[dR][dK][dL][dL][dPhe(4-Me)][dK][dL][dK][dPhe(4-Me)][dK][dR]-NH2)	1
4) CC(=O)N[C@H](CCCNC(=N)N)C(=O)N[C@H](CCCCN)C(=O)N[C@H](CC(C)C)C(=O)N[C@H](CC(C)C)C(=O)N[C@H](Cc1ccc(F)cc1)C(=O)N[C@H](CCCCN)C(=O)N[C@H](CC(C)C)C(=O)N[C@H](CCCCN)C(=O)N[C@H](Cc1ccc(F)cc1)C(=O)N[C@H](CCCCN)C(=O)N[C@H](CCCNC(=N)N)C(N)=O [LV-5] (Ac-[dR][dK][dL][dL][dPhe(4-F)][dK][dL][dK][dPhe(4-F)][dK][dR]-NH2)	1
5) CC(=O)N[C@H](CCCNC(=N)N)C(=O)N[C@H](CCCNC(=N)N)C(=O)N[C@H](CC(C)C)C(=O)N[C@H](CC(C)C)C(=O)N[C@H](Cc1ccc2ccccc2c1)C(=O)N[C@H](CCCCN)C(=O)N[C@H](CC(C)C)C(=O)N[C@H](CCCCN)C(=O)N[C@H](Cc1ccc2ccccc2c1)C(=O)N[C@H](CCCCN)C(=O)N[C@H](CCCNC(=N)N)C(N)=O [LV-24] (Ac-[dR][dR][dL][dL][d2Nal][dK][dL][dK][d2Nal][dK][dR]-NH2)	1
6) CC(=O)N[C@H](CCCNC(=N)N)C(=O)N[C@H](CCCCN)C(=O)N[C@H](CC(C)C)C(=O)N[C@H](CC(C)C)C(=O)N[C@H](Cc1ccc(F)c(F)c1)C(=O)N[C@H](CCCCN)C(=O)N[C@H](CC(C)C)C(=O)N[C@H](CCCCN)C(=O)N[C@H](Cc1ccc(F)c(F)c1)C(=O)N[C@H](CCCCN)C(=O)N[C@H](CCCNC(=N)N)C(N)=O [LV-6] (Ac-[dR][dK][dL][dL][dPhe(3,4-F2)][dK][dL][dK][dPhe(3,4-F2)][dK][dR]-NH2)	1
7) CC(=O)N[C@H](CCCNC(=N)N)C(=O)N[C@H](CCCCN)C(=O)N[C@H](CC(C)C)C(=O)N[C@H](CC(C)C)C(=O)N[C@H](Cc1ccc2ccccc2c1)C(=O)N[C@H](CCCCN)C(=O)N[C@H](CC(C)C)C(=O)N[C@H](CCCCN)C(=O)N[C@H](Cc1ccc2ccccc2c1)C(=O)N[C@H](CCCCN)C(=O)N[C@H](CCCNC(=N)N)C(N)=O [LV-18] (Ac-[dR][dK][dL][dL][d2Nal][dK][dL][dK][d2Nal][dK][dR]-NH2)	0
